tested_on: hGLP-1R (Homo sapiens, UniProt P43220)
Sequence (P43220 24-463): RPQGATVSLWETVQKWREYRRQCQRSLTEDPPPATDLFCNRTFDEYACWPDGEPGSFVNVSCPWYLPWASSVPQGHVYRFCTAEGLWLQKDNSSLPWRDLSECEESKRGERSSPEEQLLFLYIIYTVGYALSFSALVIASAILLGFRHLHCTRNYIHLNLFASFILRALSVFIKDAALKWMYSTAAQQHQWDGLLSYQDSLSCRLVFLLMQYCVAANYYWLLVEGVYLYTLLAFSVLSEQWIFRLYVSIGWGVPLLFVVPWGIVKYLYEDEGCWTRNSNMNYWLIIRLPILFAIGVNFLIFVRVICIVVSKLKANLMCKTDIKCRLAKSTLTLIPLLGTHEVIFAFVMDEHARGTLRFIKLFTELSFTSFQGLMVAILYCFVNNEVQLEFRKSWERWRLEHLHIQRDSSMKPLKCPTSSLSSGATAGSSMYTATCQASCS
experimental_protocol: cell-based or functional assay
Starred links: 1 amine or outer side, 2 acyl side, 3 side chain; linkers in the order of their positions; H or OH if unused. Non-standard residues stand in square brackets, D forms with d. Groups on a side chain read outwards from the residue. No end group written: not given here. *: point of attachment. C20 diacid = O=C(O)CCCCCCCCCCCCCCCCCCC(=O)*; αMePhe(2-F) = C[C@](N)(Cc1ccccc1F)C(=O)O; γGlu = O=C(O)[C@H](CCC(=O)[*:2])N[*:1]; αMeL = CC(C)C[C@](C)(N)C(=O)O; AEEA = NCCOCCOCC(=O)O; Aib = CC(C)(N)C(=O)O
Classify by cAMP Rel EC50 (1% HSA). Ranges: bucket 1 = under 40 nM, bucket 2 = from 40 nM up to 300 nM, bucket 3 = 300 nM and over

## Task Band for the recorded cAMP Rel EC50 (1% HSA) of YXQGTFTSDXSQXLDXKAQXQFIEXLIAXGPSSGEPPPSGSEE (non-natural residues; lysine acylated AEEA-γGlu-C18 diacid; C-terminal amide; synthetic construct; SITE 2: note = 2-Aminoisobutyric Acid; SITE 10: note = 3-(4-Pyridyl)-L-alanine; SITE 13: note = alpha-methyl-leucine; SITE 16: note = L-ornithine; SITE 17: note = Lysine is chemically modified through conjugation of the epsilon-amino group of the Lysine side chain with (2-[2-(2-) [Example 1100] ?
## Result bucket 2

## Task Band for the recorded cAMP Rel EC50 (1% HSA) of YXQGTXTSDXSILLDKKAQXAFIEXLEEGGPSSGAPPPSGSGE (synthetic construct; SITE 2: note = 2-Aminoisobutyric Acid; SITE 6: note = alpha-methyl-2-fluoro-L-phenylalanine; SITE 10: note = 3-(4-Pyridyl)-L-alanine; SITE 17: note = Lysine is chemically modified through conjugation of the epsilon-amino group of the Lysine side chain with (gamma-Glu)2-CO-(CH2)1) [Example 666] ?
## Result bucket 1

## Task Band for the recorded cAMP Rel EC50 (1% HSA) of YXQGTXTSDXXILLDXKAQXXFIEXLQEGGPSSGEPPPEGAE (synthetic construct; SITE 2: note = 2-Aminoisobutyric Acid; SITE 6: note = alpha-methyl-2-fluoro-L-phenylalanine; SITE 10: note = 3-(4-Pyridyl)-L-alanine; SITE 11: note = alpha-methyl-L-serine; SITE 16: note = L-ornithine; SITE 17: note = Lysine is chemically modified through conjugation of the epsi) [Example 546] ?
## Result bucket 1

## Task Band for the recorded cAMP Rel EC50 (1% HSA) of YXQGTXTSDXXIXLDXKAQXEFIEXLIEGGPSSGEPPPSGS (not fully specified; synthetic construct; SITE 2: note = 2-Aminoisobutyric Acid; SITE 6: note = alpha-methyl-2-fluoro-L-phenylalanine; SITE 10: note = 3-(4-Pyridyl)-L-alanine; SITE 11: note = alpha-methyl-L-serine; SITE 13: note = alpha-methyl-leucine; SITE 16: note = L-ornithine; SITE 17: note = Lysine is chemically mo) [Example 1208] ?
## Result bucket 2

## Task Band for the recorded cAMP Rel EC50 (1% HSA) of YXQGTFTSDXSQXLDXKAQXAFIEXLLEGGPSSGAPPPSGS (acylated Lys AEEA-γGlu-C18 diacid; non-natural residues; C-terminal amide; synthetic construct; SITE 2: note = 2-Aminoisobutyric Acid; SITE 10: note = 3-(4-Pyridyl)-L-alanine; SITE 13: note = alpha-methyl-leucine; SITE 16: note = L-ornithine; SITE 17: note = Lysine is chemically modified through conjugation of the epsilon-amino group of the Lysine side chain with (2-[2-(2-) [Example 911] ?
## Result bucket 2

## Task Band for the recorded cAMP Rel EC50 (1% HSA) of YXQGTXTSDXXIXLDXKAAXEFIEXLIEGGPSSGAPPPSGX (C-terminal γGlu, amide; synthetic construct; SITE 2: note = 2-Aminoisobutyric Acid; SITE 6: note = alpha-methyl-2-fluoro-L-phenylalanine; SITE 10: note = 3-(4-Pyridyl)-L-alanine; SITE 11: note = alpha-methyl-L-serine; SITE 13: note = alpha-methyl-leucine; SITE 16: note = L-ornithine; SITE 17: note = Lysine is chemically mo) [Example 722] ?
## Result bucket 1

## Task Band for the recorded cAMP Rel EC50 (1% HSA) of Y[Aib]QGT[αMePhe(2-F)]TSDYSKILDKIAQK([AEEA-γGlu-C20 diacid])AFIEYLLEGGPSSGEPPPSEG-NH2 [Example 311] ?
## Result bucket 3

## Task Band for the recorded cAMP Rel EC50 (1% HSA) of YXQGTXTSDXSIXLDKKAQXXFIEYLTEGGPSSGEPPPEGSEE (synthetic construct; SITE 2: note = 2-Aminoisobutyric Acid; SITE 6: note = alpha-methyl-2-fluoro-L-phenylalanine; SITE 10: note = 3-(4-Pyridyl)-L-alanine; SITE 13: note = alpha-methyl-leucine; SITE 17: note = Lysine is chemically modified through conjugation of the epsilon-amino group of the Lysine) [Example 652] ?
## Result bucket 1

## Task Band for the recorded cAMP Rel EC50 (1% HSA) of Y[Aib]QGTFTSDYSI[αMeL]LDKQAAK([AEEA-AEEA-γGlu-C20 diacid])QFVNWLLA[Aib]GPSSGEPPPSEG-NH2 [Example 325] ?
## Result bucket 3

## Task Band for the recorded cAMP Rel EC50 (1% HSA) of Y[Aib]QGTFTSDYSI[αMeL]LDKQAAK([AEEA-AEEA-γGlu-C20 diacid])QFVEWLLA[Aib]GPSSGAPPPSEG-NH2 [Example 327] ?
## Result bucket 3

## Task Band for the recorded cAMP Rel EC50 (1% HSA) of YXQGTFTSDXXQXLDXKAQXQFIQXLIAGGPSSGEPPPSGGGE (not fully specified; non-natural residues; C18 diacid-γGlu-e on Lys; C-terminal amide; synthetic construct; SITE 2: note = 2-Aminoisobutyric Acid; SITE 10: note = 3-(4-Pyridyl)-L-alanine; SITE 11: note = alpha-methyl-L-serine; SITE 13: note = alpha-methyl-leucine; SITE 16: note = L-ornithine; SITE 17: note = Lysine is chemically modified through conjugation of the epsilon-amino group) [Example 1133] ?
## Result bucket 2

## Task Band for the recorded cAMP Rel EC50 (1% HSA) of YXQGTXTSDXXIXLDXXAQXEFIEXLVEGGPSSGAPPPSGS (synthetic construct; SITE 2: note = 2-Aminoisobutyric Acid; SITE 6: note = alpha-methyl-2-fluoro-L-phenylalanine; SITE 10: note = 3-(4-Pyridyl)-L-alanine; SITE 11: note = alpha-methyl-L-serine; SITE 13: note = alpha-methyl-leucine; SITE 16: note = L-ornithine; SITE 17: note = Ornithine is chemically) [Example 1210] ?
## Result bucket 1

## Task Band for the recorded cAMP Rel EC50 (1% HSA) of YXQGTFTSDXSQXLDKKAQXAFIEYLIAGGPSSGAPPPSGEEE (Aib, 4Pal, αMeL, Me4Pal, acylated K, C-terminal amide; synthetic construct; SITE 2: note = 2-Aminoisobutyric Acid; SITE 10: note = 3-(4-Pyridyl)-L-alanine; SITE 13: note = alpha-methyl-leucine; SITE 17: note = Lysine is chemically modified through conjugation of the epsilon-amino group of the Lysine side chain with D-Glutamic acid-(gamma-Glu)-CO-(CH2)16) [Example 1088] ?
## Result bucket 3
